Every entry's value here was drawn from patent EP4685142A1.

For each of the compounds below, state its Kp at 1 h.
assayRemarks: In vivo brain-to-plasma ratio in mice
testContext: mouse, brain, po, 10 mg/kg
One number for each entry.

Take a look at these entries with their results.
> print(dat)
                                   compound   property  number
1  Cn1c(-c2ccc3sccc3c2O)nnc(N[C@@H]2CCCN(CCO)C2)c1=O  Kp at 1 h    0.04
2  Cc1nc(N[C@@H]2CCCC[C@H]2O)nnc1-c1ccc(C(F)(F)F)cc1O [Ref-2, reference compound]  Kp at 1 h    0.63
3  CCn1c(-c2ccc3sccc3c2O)nnc(N[C@@H]2CCCN(C)C2)c1=O  Kp at 1 h    0.14

Measured Kp at 1 h, CCN1CCC[C@@H](Nc2nnc(-c3ccc4sccc4c3O)n(C)c2=O)C1 : 0.36

----------
For each of the compounds below, state its log10(Brain).
assayRemarks: In vivo brain-to-plasma ratio in mice
testContext: 1 h, male mice, oral 10 mg/kg
Note the log scale: values are log10 of Brain expressed in ng/g.

Take a look at these entries with their results.
> print(dat)
                                   compound      property  number
1  CN1CCC[C@@H](Nc2nnc(-c3ccc4sccc4c3O)n(C)c2=O)C1  log10(Brain)    3.25
2  CN1C[C@H](F)C[C@@H](Nc2nnc(-c3ccc4sccc4c3O)n(C)c2=O)C1  log10(Brain)    3.13
3  CCN1CCC[C@@H](Nc2nnc(-c3ccc4sccc4c3O)n(CC)c2=O)C1  log10(Brain)    2.70
4  CCN1CCC[C@@H](Nc2nnc(-c3ccc4sccc4c3O)n(C)c2=O)C1  log10(Brain)    2.88

Provide each entry's log10(Brain) from the list below.
1. Cc1nc(N[C@@H]2CCCC[C@H]2O)nnc1-c1ccc(C(F)(F)F)cc1O [Ref-2, reference compound]
2. CCn1c(-c2ccc3sccc3c2O)nnc(N[C@@H]2CCCN(C)C2)c1=O

1. 2.23
2. 2.87

----------
assayRemarks: In vivo distribution of cerebrospinal fluid and plasma
testContext: male, mouse, plasma, iv, 5 mg/kg
For each of the compounds below, state its concentration at 0.25 h.

> print(dat)
                            smilesstructure                 property     result
1  CCN1C[C@H](F)C[C@@H](Nc2nnc(-c3ccc4sccc4c3O)n(CC)c2=O)C1  concentration at 0.25 h  965 ng/mL

Measured concentration at 0.25 h, CN1C[C@H](F)C[C@@H](Nc2nnc(-c3ccc4sccc4c3O)n(C)c2=O)C1 : 5030 ng/mL

----------
system: NLRP3 inflammasome (Homo sapiens, UniProt Q96P20)
Construct: host or cells: THP-1 cells
Sequence (Q96P20 whole entry): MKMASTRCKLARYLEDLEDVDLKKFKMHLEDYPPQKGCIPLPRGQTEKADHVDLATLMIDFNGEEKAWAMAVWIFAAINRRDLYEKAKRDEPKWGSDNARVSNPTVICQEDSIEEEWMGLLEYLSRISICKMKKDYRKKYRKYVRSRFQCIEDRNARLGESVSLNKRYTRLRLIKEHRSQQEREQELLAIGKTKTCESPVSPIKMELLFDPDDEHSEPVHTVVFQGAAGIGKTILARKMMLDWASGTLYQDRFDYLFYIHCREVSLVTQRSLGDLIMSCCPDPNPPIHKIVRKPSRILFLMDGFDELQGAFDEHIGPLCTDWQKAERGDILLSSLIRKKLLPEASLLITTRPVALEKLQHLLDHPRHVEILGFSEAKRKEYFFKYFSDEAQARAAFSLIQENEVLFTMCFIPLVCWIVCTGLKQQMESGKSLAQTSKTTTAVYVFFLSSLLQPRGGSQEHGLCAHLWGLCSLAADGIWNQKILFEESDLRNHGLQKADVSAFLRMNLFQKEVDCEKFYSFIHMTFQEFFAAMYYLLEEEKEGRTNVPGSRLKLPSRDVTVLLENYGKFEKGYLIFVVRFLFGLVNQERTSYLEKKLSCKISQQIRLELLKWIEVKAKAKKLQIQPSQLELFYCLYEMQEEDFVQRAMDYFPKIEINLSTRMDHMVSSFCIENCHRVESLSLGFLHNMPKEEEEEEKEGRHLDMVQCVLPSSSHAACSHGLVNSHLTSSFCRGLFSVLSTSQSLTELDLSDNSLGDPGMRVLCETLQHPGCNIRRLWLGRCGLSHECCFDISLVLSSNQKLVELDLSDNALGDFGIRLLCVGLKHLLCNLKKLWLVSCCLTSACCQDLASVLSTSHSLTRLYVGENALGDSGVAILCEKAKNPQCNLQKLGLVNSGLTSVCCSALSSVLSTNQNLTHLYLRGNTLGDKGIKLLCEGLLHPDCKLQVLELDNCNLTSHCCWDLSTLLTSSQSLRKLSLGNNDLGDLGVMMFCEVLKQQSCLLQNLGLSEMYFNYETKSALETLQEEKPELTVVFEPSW
assayRemarks: Inhibitory activity of NLRP3 inflammasome in human monocytes (THP-1 cells, LPS + Nigericin, IL-1β ELISA)
Assay type: cell-based
property: log10 of IC50 (log10 of the value in nM)
Note the log scale: values are log10 of IC50 expressed in nM.

> print(dat)
                                   molecule       property  number
1  CCn1c(-c2ccc3sccc3c2O)nnc(N[C@@H]2CCCN(C)C2)c1=O [Compound 17]  log10 of IC50    0.50

Provide each entry's log10 of IC50 from the list below.
1. [2H]C([2H])([2H])n1c(-c2ccc3sccc3c2O)nnc(N[C@@H]2CCCN(CC)C2)c1=O [Compound 55]
2. CN1CCC[C@@H](Nc2nnc(-c3ccc(-c4ccc(F)cc4)cc3O)n(C)c2=O)C1 [Compound 46]
3. CCN1CCC[C@@H](Nc2nnc(-c3ccc4c(c3O)CCC4=C(F)F)n(C)c2=O)C1 [Compound 2]
4. CC(C)N1CCC[C@@H](Nc2nnc(-c3ccc4sccc4c3O)n(C)c2=O)C1 [Compound 36]
5. [2H]C([2H])([2H])C([2H])([2H])N1CCC[C@@H](Nc2nnc(-c3ccc4sccc4c3O)n(C)c2=O)C1 [Compound 6]
6. CCN1C[C@H](F)C[C@@H](Nc2nnc(-c3ccc4sccc4c3O)n(C)c2=O)C1 [Compound 41]

1. 0.54
2. 1.41
3. 0.69
4. 0.19
5. 0.48
6. 0.31

Provide each entry's log10 of IC50 from the list below.
1. CCn1c(-c2ccc3sccc3c2O)nnc(N[C@@H]2C[C@@H](F)CN(C)C2)c1=O [Compound 43]
2. CCN1CCC[C@@H](Nc2nnc(-c3ccc4sccc4c3O)n(C)c2=O)C1 [Compound 3]
3. CN1CCC[C@@H](Nc2nnc(-c3ccc4c(c3O)CCC4=C(F)F)n(C)c2=O)C1 [Compound 13]

[0.75, 0.32, 0.13]
